Biological target: Carbonic anhydrase 7 (Homo sapiens, UniProt P43166)
Sequence (P43166 whole entry): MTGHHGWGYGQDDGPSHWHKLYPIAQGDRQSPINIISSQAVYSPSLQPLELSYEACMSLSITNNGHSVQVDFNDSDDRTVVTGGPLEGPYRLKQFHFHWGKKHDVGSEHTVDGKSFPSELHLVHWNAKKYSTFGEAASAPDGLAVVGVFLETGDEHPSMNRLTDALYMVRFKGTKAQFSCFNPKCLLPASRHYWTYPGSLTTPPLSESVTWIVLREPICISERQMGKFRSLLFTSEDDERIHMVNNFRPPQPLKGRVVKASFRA
Assay: Binding affinity to human recombinant CA7 by fluorescence-based thermal shift assay
pKd: −log10 of the molar value.
Decision: pKd compared against 8; not below it gives Satisfied, below it gives Not satisfied.

Problem: Check the entry CCCS(=O)(=O)c1c(F)c(F)c(S(N)(=O)=O)c(F)c1NC1CCCCCCC1 : does pKd equal or exceed 8?
Result: Satisfied

Problem: Quick check, pKd >= 8? CC(C)(C)Nc1c(F)c(S(N)(=O)=O)c(F)c(F)c1S(=O)(=O)CCc1ccccc1
Result: Satisfied

Problem: Reported pKd reaches at least 8 for CCCSc1c(F)c(F)c(S(N)(=O)=O)c(NC2CCCCCCC2)c1F ?
Result: Not satisfied

Problem: Given the entry NS(=O)(=O)c1cc(C(=O)Cn2cnc3ccccc32)ccc1Cl , answer whether its pKd meets or surpasses 8.
Result: Not satisfied

Problem: Quick check, pKd >= 8? NS(=O)(=O)c1ccc(C(=O)Cn2cnc3ccccc32)cc1Cl
Result: Satisfied

Problem: Is reported pKd greater than or equal to 8 here: NS(=O)(=O)c1cc(C(=O)Cn2c(Cc3ccccc3)nc3ccccc32)ccc1Cl
Result: Not satisfied
